experiment: supercomplex reporter luminescence per Hoechst cell count – Hoechst nuclei count (AID 1645838); conditions: Cells, luminescence/Hoechst cell count ratio, measured here: cell number, Hoechst nuclei count;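 also: control cybrid cells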
Out of some 2,000 compounds screened, about 100 (5%) were called active. The sample as a whole holds a higher share of actives than the screen did.
Assay Endpoint: cell count

# Compound, cell count
records = [
    ("Nc1nc2c([nH]c(=O)n2[C@@H]2O[C@H](CO)[C@@H](O)[C@H]2O)c(=O)[nH]1", 5870),
]

Report cell count for each item below.
1. Cc1ccc(NC(=O)CCCCCC(=O)Nc2ccccc2N)cc1
2. COc1cc(C(=O)NS(=O)(=O)c2ccccc2C)ccc1Cc1cn(C)c2ccc(NC(=O)OC3CCCC3)cc12
3. CC(=O)O[C@@]12C[C@@H](C)[C@@]3(O)[C@@H](C=C(CO)C[C@]4(O)C(=O)C(C)=C[C@@H]34)[C@@H]1C2(C)C
4. Oc1ccc(Nc2nc(-c3ccc(Cl)cc3)cs2)cc1

1: 4790; 2: 4650; 3: 5140; 4: 4930

Report cell count for each item below.
1. CCCCC[C@H](O)/C=C/[C@H]1C(=O)C[C@H](O)[C@@H]1C/C=C\CCCC(=O)NC(CO)CO
2. CCCCCCCCCCCCCCCC(=O)O
3. CC(C)(CCCCCCCCCCC(C)(C)CC(=O)O)CC(=O)O
4. CCCCC/C=C\CCCCCCCCCCCCC(=O)O

1. 4420
2. 5780
3. 5040
4. 5480

Report cell count for each item below.
1. CN(C)c1ccc(C(=O)NCCCCCC(=O)NO)cc1
2. O=C(O)/C=C/c1ccc(O)c(O)c1
3. Oc1cccc(-c2nc(N3CCOCC3)c3sccc3n2)c1
4. O=P(O)(O)OC1C(O)C(OP(=O)(O)O)C(O)C(OP(=O)(O)O)C1O (configuration not stated)
5. CCCCC[C@H](O)/C=C/[C@@H]1c2cc(CCCCC(=O)O)n(-c3ccccc3)c2C[C@H]1O
6. CCCC/C=C/C=C/C=C\CCCCCCCC(=O)OC
7. O=P(O)(O)O[C@H]1[C@@H](O)[C@H](O)[C@@H](OP(=O)(O)O)[C@H](OP(=O)(O)O)[C@H]1O

5320
5860
2940
5290
6120
4950
4340

----------
Please go through the items and note down their cell count.
experiment: supercomplex reporter luminescence per Hoechst cell count – Hoechst nuclei count (AID 1645838); conditions: Cells, luminescence/Hoechst cell count ratio, measured here: cell number, Hoechst nuclei count, library stock concentration (final well concentration not given) 278 uM;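 also: control cybrid cells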
Out of some 2,000 compounds screened, about 100 (5%) were called active. Shown is part of a subset that was picked to be rich in actives.

Before answering, review these 5 worked examples.
# Molecule, cell count
measured = [
    ("CN(C)C1CCc2[nH]c3ccc(NC(=O)c4ccc(F)cc4)cc3c2C1 (stereo unspecified)", 6070),
    ("O=c1cc(-c2cccc3c2Sc2ccccc2S3)oc(N2CCOCC2)c1", 5590),
    ("O=c1[nH]oc2cc(Cl)ccc12", 6710),
    ("C=CCn1c(=O)c2cnc(Nc3ccc(N4CCN(C)CC4)cc3)nc2n1-c1cccc(C(C)(C)O)n1", 4830),
    ("Cc1cc(N2CCOCC2)ccc1Nc1nc(NC2CCCCC2)c2[nH]cnc2n1", 5730),
]

Report cell count for each item below.
1. Cc1ccc(NC(=O)c2cccc(C(C)(C)C#N)c2)cc1Nc1ccc2ncn(C)c(=O)c2c1
2. COc1cc(C(=O)N(CCC2CCCN2C)CC(C)=Cc2ccccc2F)cc(OC)c1OC (stereo unspecified)
3. O=C(Nc1cccc(Br)c1)c1cccc(S(=O)(=O)N2CCCCCC2)c1
4. Cc1ccc(C)c(-n2sc3cc(F)ccc3c2=O)c1
5. NC(=O)Nc1sc(-c2ccc(F)cc2)cc1C(N)=O
6. N#Cc1cccc(C#N)c1-c1nc2c3ccccc3c3cc(Cl)ccc3c2[nH]1

1. 6060
2. 6820
3. 6210
4. 6230
5. 6190
6. 6500
